pIC50: −log10 of the molar value.
What follows is literature data on pIC50 for Dipeptidyl peptidase 2 (Homo sapiens, UniProt Q9UHL4).

SMILES_STRUCTURE: N#C[C@@H]1CCCN1C(=O)[C@@H](N)CC(=O)N1Cc2ccccc2C1
pIC50: < 4.70
//
SMILES_STRUCTURE: CC(C)(CC(=O)N[C@H]1C[C@@H]1c1cccc(Cl)c1)NCC(=O)N1C[C@@H](F)C[C@H]1C#N
pIC50: < 4.70
//
SMILES_STRUCTURE: C[C@@H](c1ccc(-c2cn(C)c(=O)cc2CO)cc1)[C@H](N)C(=O)N1CC[C@H](F)C1.O=C(O)C(F)(F)F
pIC50: < 4.00
//
SMILES_STRUCTURE: N[C@H]1CN(c2ncnc(-c3ccccc3)n2)C[C@@H]1N1CCCCC1=O
pIC50: < 4.52

====

What follows is literature data on IC50 for UniProtKB Q9UHL4.
PROPERTY_MEASURED: IC50

SMILES_STRUCTURE: C[C@@H]1CN(C(=O)C[C@H](N)Cc2cc(F)c(F)cc2F)Cc2ccc(C(F)(F)F)n21.Cl
PROPERTY_MEASURED: IC50
RESULT: > 100 µM
--
SMILES_STRUCTURE: N[C@H]1C[C@H](N2CCn3c(nnc3C(F)(F)F)C2)CC[C@@H]1c1cc(F)c(F)cc1F
PROPERTY_MEASURED: IC50
RESULT: > 100 µM
--
SMILES_STRUCTURE: N#C[C@@H]1CCCN1C(=O)[C@@H](N)CCC(=O)N1CCn2cnnc2C1
PROPERTY_MEASURED: IC50
RESULT: > 20 µM
--
SMILES_STRUCTURE: CC(C)(CC(=O)NCCc1ccc(Cl)c(Cl)c1)NCC(=O)N1CCC[C@H]1C#N
PROPERTY_MEASURED: IC50
RESULT: > 20 µM
--
SMILES_STRUCTURE: CC(C)(CC(=O)N[C@H]1C[C@@H]1c1cccnc1)NCC(=O)N1C[C@@H](F)C[C@H]1C#N
PROPERTY_MEASURED: IC50
RESULT: > 20 µM

====

What follows is literature data on log10(IC50) for Dipeptidyl peptidase 2 (Homo sapiens, UniProt Q9UHL4).
PROPERTY_MEASURED: log10(IC50) (log10 of the value in µM)

MOLECULE: C[C@@H](c1ccc(-c2nccs2)cc1)[C@H](N)C(=O)N1CC[C@H](F)C1
SYSTEM: Dipeptidyl peptidase 2 (Homo sapiens, UniProt Q9UHL4)
log10(IC50): -0.14

MOLECULE: Cl.N[C@@H](CC(=O)N1CCn2c(nnc2C(F)(F)F)C1C(O)c1ccc(F)cc1)Cc1cc(F)c(F)cc1F (stereo in doubt; 47b)
SYSTEM: Dipeptidyl peptidase 2 (Homo sapiens, UniProt Q9UHL4)
log10(IC50): 1.56

MOLECULE: C[C@H](c1nnc(-c2ccc(Cl)cc2Cl)o1)[C@H](N)C(=O)N1CCCC1
SYSTEM: Dipeptidyl peptidase 2 (Homo sapiens, UniProt Q9UHL4)
log10(IC50): -0.07

MOLECULE: CC1c2nc(C(C)(C)C)n(C)c2CCN1C(=O)C[C@H](N)Cc1cc(F)c(F)cc1F (stereo in doubt; 70a)
SYSTEM: Dipeptidyl peptidase 2 (Homo sapiens, UniProt Q9UHL4)
log10(IC50): 1.57

MOLECULE: N[C@@H](CCCCNC(=O)OCc1ccccc1)C(=O)N1Cc2ccccc2C1
SYSTEM: Dipeptidyl peptidase 2 (Homo sapiens, UniProt Q9UHL4)
log10(IC50): 0.40

MOLECULE: N#C[C@@H]1C[C@H](F)CN1C(=O)CN[C@H]1[C@@H]2CN(c3nc4ccccc4o3)C[C@@H]21
SYSTEM: Dipeptidyl peptidase 2 (Homo sapiens, UniProt Q9UHL4)
log10(IC50): 0.71

MOLECULE: C[C@@H](c1ccc(-c2cc(F)cc(F)c2)cc1)[C@H](N)C(=O)N1CC[C@H](F)C1
SYSTEM: Dipeptidyl peptidase 2 (Homo sapiens, UniProt Q9UHL4)
log10(IC50): 0.30

MOLECULE: N#C[C@@H]1C[C@H](F)CN1C(=O)CN[C@H]1[C@@H]2CN(c3ccc(Cl)cn3)C[C@@H]21
SYSTEM: Dipeptidyl peptidase 2 (Homo sapiens, UniProt Q9UHL4)
log10(IC50): 0.94

====

What follows is literature data on IC50 for Dipeptidyl peptidase 2 (Homo sapiens).

MOLECULE: CC(C)(CC(=O)Nc1ccc(F)cc1)NCC(=O)N1CCC[C@H]1C#N
UNIT_STRING: µM
MODIFIER_SIGN: >
IC50: 20

MOLECULE: N#C[C@@H]1CCCCN1C(=O)[C@@H](N)CCN
UNIT_STRING: µM
MODIFIER_SIGN: =
IC50: 0.038

MOLECULE: NC(CC(=O)N1CSC[C@H]1C(=O)NCc1ccc(CC(=O)O)cc1)Cc1ccccc1F.O=C(O)C(F)(F)F (stereo not given in full)
UNIT_STRING: µM
MODIFIER_SIGN: >
IC50: 100

MOLECULE: CC[C@H](C)[C@H](N)C(=O)N1CCC1
UNIT_STRING: µM
MODIFIER_SIGN: =
IC50: 730

MOLECULE: N[C@@H](CCNCc1cccc(Cl)c1)C(=O)N1CCCCC1
UNIT_STRING: µM
MODIFIER_SIGN: =
IC50: 0.00134

MOLECULE: N[C@H]1C[C@@H](N2Cc3cn(S(=O)(=O)c4cccc(C(F)(F)F)c4)nc3C2)CO[C@@H]1c1cc(F)ccc1F
UNIT_STRING: µM
MODIFIER_SIGN: >
IC50: 100

MOLECULE: C[C@@H](c1ccc(C(F)(F)F)cc1)[C@H](N)C(=O)N1CC[C@H](F)C1
UNIT_STRING: µM
MODIFIER_SIGN: =
IC50: 5.2

MOLECULE: N[C@H]1CN(c2cnc3ccccc3n2)CC[C@@H]1c1cc(F)c(F)cc1F
UNIT_STRING: µM
MODIFIER_SIGN: =
IC50: 27

MOLECULE: CC(C)[C@@H](Oc1ccc(CNC(=O)[C@@H]2CCCN2C(=O)CC(N)Cc2cc(F)ccc2F)cc1)C(=O)O.O=C(O)C(F)(F)F (stereo not given in full)
UNIT_STRING: µM
MODIFIER_SIGN: >
IC50: 100

MOLECULE: N[C@@H](CCNCC1CCCCC1)C(=O)N1CCCCC1
UNIT_STRING: µM
MODIFIER_SIGN: =
IC50: 0.0011

MOLECULE: N#C[C@@H]1C[C@H](F)CN1C(=O)CN[C@H]1[C@@H]2CN(c3ccccn3)C[C@@H]21
UNIT_STRING: µM
MODIFIER_SIGN: =
IC50: 10.8

MOLECULE: CN(C)C(=O)[C@@H](c1ccc(-c2ccc(F)cc2)cc1)[C@H](N)C(=O)N1CCC[C@H]1C#N
UNIT_STRING: µM
MODIFIER_SIGN: =
IC50: 40

MOLECULE: N[C@@H](CC(=O)N1CCCN(C(=O)c2cncc(C(=O)O)c2)CC1)Cc1cc(F)c(F)cc1F
UNIT_STRING: µM
MODIFIER_SIGN: =
IC50: 99.4

MOLECULE: CC[C@H](C)[C@H](N)C(=O)N1Cc2ccc(I)cc2C1
UNIT_STRING: µM
MODIFIER_SIGN: =
IC50: 2.6

MOLECULE: CC(C)(CC(=O)NC(C)(C)c1ccccc1)NCC(=O)N1CCC[C@H]1C#N
UNIT_STRING: µM
MODIFIER_SIGN: >
IC50: 20

====

What follows is literature data on IC50 for Dipeptidyl peptidase 2 (Homo sapiens, UniProt Q9UHL4).

SMILES_STRUCTURE: C[C@@H](c1ccc(-c2ccccc2F)cc1)[C@H](N)C(=O)N1CC[C@H](F)C1
UNIT_STRING: nM
IC50: 1100

SMILES_STRUCTURE: C[C@H](c1nc(-c2cccc(C(F)(F)F)c2)no1)[C@H](N)C(=O)N1CCCC1
UNIT_STRING: nM
IC50: 4300

SMILES_STRUCTURE: N[C@H](C(=O)N1CCCC1)[C@@H]1CC[C@@H](NS(=O)(=O)c2ccc(C(=O)O)cc2)C1
UNIT_STRING: nM
IC50: 5000

SMILES_STRUCTURE: CN(C)C(=O)[C@@H](c1ccc(-c2cccc(-n3cnnn3)c2)cc1)[C@H](N)C(=O)N1CC[C@H](F)C1.O=C(O)C(F)(F)F
UNIT_STRING: nM
IC50: 29000

SMILES_STRUCTURE: N[C@@H](CCNC1CCNCC1)C(=O)N1CCCCC1
UNIT_STRING: nM
IC50: 85

SMILES_STRUCTURE: COc1ccc(NC(=O)O[C@H]2CC[C@H]([C@H](N)C(=O)N3CCCC3)C2)cc1
UNIT_STRING: nM
IC50: 1400
